Data origin: the supplement of paper PMC10065799

# Tested on: Jak2 (UniProt O60674)
# Sequence (O60674 whole entry, looked up): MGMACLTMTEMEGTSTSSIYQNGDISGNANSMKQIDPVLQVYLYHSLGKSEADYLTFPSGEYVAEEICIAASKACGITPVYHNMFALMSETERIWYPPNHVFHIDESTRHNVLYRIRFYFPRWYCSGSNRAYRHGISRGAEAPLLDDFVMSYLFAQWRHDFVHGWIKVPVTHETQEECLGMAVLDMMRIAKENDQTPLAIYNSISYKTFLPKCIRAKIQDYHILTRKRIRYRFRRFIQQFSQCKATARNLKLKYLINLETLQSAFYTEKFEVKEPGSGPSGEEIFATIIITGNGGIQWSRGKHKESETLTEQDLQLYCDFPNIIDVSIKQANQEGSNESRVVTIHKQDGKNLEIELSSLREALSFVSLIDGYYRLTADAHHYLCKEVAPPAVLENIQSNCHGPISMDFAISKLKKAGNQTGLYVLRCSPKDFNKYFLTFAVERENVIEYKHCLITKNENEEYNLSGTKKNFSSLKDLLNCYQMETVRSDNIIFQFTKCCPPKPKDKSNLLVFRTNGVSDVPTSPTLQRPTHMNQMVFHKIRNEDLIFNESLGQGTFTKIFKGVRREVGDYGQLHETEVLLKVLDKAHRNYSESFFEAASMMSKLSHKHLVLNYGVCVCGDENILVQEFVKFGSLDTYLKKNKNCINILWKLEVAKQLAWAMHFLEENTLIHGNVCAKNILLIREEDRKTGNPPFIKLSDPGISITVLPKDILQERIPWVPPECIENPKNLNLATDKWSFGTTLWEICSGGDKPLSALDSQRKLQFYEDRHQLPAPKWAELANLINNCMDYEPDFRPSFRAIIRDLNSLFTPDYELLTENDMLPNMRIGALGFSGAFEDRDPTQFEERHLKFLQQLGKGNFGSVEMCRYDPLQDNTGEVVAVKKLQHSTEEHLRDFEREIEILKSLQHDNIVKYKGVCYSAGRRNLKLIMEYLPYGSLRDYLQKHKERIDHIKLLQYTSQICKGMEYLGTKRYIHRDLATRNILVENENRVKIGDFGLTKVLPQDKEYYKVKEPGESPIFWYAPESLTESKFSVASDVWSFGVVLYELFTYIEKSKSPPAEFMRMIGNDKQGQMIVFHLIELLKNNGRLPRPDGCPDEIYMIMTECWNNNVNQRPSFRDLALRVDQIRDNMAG
# Experiment: phosphorylation enrichment, bacterial display (enrichment ratio); higher = better substrate or ligand; peptides without Tyr show the background;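 note: 11-residue human phosphosite peptides and single-mutation variants displayed on the E. coli surface, counted by deep sequencing, each peptide's frequency after selection divided by its frequency in the unselected input library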;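 note: frequency after pTyr selection over input frequency; kinase dosed for 20-30% of maximal phosphorylation in three min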
Measure: phosphorylation enrichment
One number for each entry.

# example entries with known answers
QHVPDYRQNVY [PCDHGA1_Y890]	0.76
VMICAYLLHRG [PTEN_Y138]	1.36
KQQEIYQELTQ [CD209_Y239]	0.917
CEHRGFLYLAI [TEK_Y897_Y897F]	0.801
DENWFYTRAAS [RPS19_Y54]	1.11
EKKDVYKTGEQ [CFH_Y1008_A1010T]	0.437
TFGQVYKGPHV [TNIK_Y40_R43P_YF]	0.608
NKEAIYSGFIR [SMCHD1_Y283_YF]	0.711

Please supply phosphorylation enrichment for each of the following items, keeping them in order.
1. HVPEEYKPKQG [SAXO2_Y37]
2. QNAGDYYDLYG [PTPN11_Y62_T59A]
3. YFVVEYRDQKP [MUC17_Y4332]
4. KDLPNYNWKSF [KISS1_Y112_N115K]
5. RSFPSYYTSHV [NEFL_Y442]
6. CTTIHYNYMGN [TP53_Y234_C238G]

[0.867, 3.1, 3.02, 0.918, 3.72, 0.865]
